- measurement.notes: protein stability index of a GFP-peptide fusion (yeast GPS) (PSI 1-4); higher = more stable; sorted into four equal gates, so the index is relative within each strain
- experimental.setup: san1∆
result.type: protein stability index
Form field (numeric): enter value without unit.

QTENDLKDIEARIKEKA [RPT1]
3.03
SFILYYRRALQSSESFD [YML103C/NUP188]
1.98
SDEERDDEDDEHNPTIV [AAR2]
3.09
LKENNAILQKSLKNVTE [YIL149C/MLP2]
2.89
KILSILNRSHFATTKAE [ECM29]
2.4
KLQLGQLYESGNPVNDA [COR1]
3.17
RKRPVPKGATYGKPTNQ [RPL15A]
3.58
RIPFSERKLKFSNRFLP [FAS1]
1.11

Which protein stability index is reported for this sequence? GRYMEALALYVDAYRRL [SRP68]
1.85

Which protein stability index is reported for this sequence? ISPKGGRRISENGQRDL [RPS19A]
3.19

Which protein stability index is reported for this sequence? PISISNAPTFNPKYDTS [YAR002W/NUP60]
2.71

Which protein stability index is reported for this sequence? LLLTIQLLIIEKEWENA [SRP72]
2.07

Which protein stability index is reported for this sequence? LNTFHFAGVASKKVTSG [RPO21]
2.9

Which protein stability index is reported for this sequence? ALIFIFFAYFIGWCKED [YJL039C/NUP192]
2.03

Which protein stability index is reported for this sequence? NTEKDYKMVQEQLSKQR [SMC2]
3.25

Which protein stability index is reported for this sequence? ECPVGEFLINEGTPINN [RPN14]
2.89

---

- measurement.notes: protein stability index of a GFP-peptide fusion (yeast GPS) (PSI 1-4); higher = more stable; sorted into four equal gates, so the index is relative within each strain
- experimental.setup: pdr5∆
result.type: protein stability index
Form field (numeric): enter value without unit.

Some solved cases for reference:
NKLSGILADEMGLGKTL [ISW2]
3.23
LYKIFSYALSMEKDKLK [SNU114]
1.33
VIEEDYDDEQNTSAQHV [IRR1]
2.95

Which protein stability index is reported for this sequence? GSRMVRELFVMAREHAP [RPT6]
1.68

Which protein stability index is reported for this sequence? WKNLVLKLSQAFGSSAT [YJR042W/NUP85]
1.95

Which protein stability index is reported for this sequence? APKIHILDPSTEYCVGD [YMR129W/POM152]
3.35

---

// reported protein stability index for each item listed
- measurement.notes: protein stability index of a GFP-peptide fusion (yeast GPS) (PSI 1-4); higher = more stable; sorted into four equal gates, so the index is relative within each strain
- experimental.setup: ubr1∆

AEDDVIIPQDILDCVVT [YJR042W/NUP85]
2.94
RLFIKPGQKMSLFSHRK [BRN1]
3.02

Which protein stability index is reported for this sequence? TVNEPQMSDKHATVVPP [SRB7]
3.07

Which protein stability index is reported for this sequence? FLTNELIRLQMEKLDAK [SWI3]
2.96

Which protein stability index is reported for this sequence? MKPSDNISTNTNIHEPQ [SSN2]
3.06

---

- measurement.notes: protein stability index of a GFP-peptide fusion (yeast GPS) (PSI 1-4); higher = more stable; sorted into four equal gates, so the index is relative within each strain
- experimental.setup: ubr1∆
result.type: protein stability index

LVSSYLNKSDLLDKYGK [YML103C/NUP188]
2.89
DFNEIVQYLSGAHGNSD [POP3]
1.28
APDGSASISLPNHIPSV [SWP82]
3.3

Now for another entry.
Which protein stability index is reported for this sequence? SRKQKVIKTLTVDVSSP [RPL22B]
2.79
